These entries and their values trace back to patent US20220235065A1.

compounds and their reported IC50
Molecular target: EHMT1 (Homo sapiens, UniProt Q9H9B1)
Sequence (Q9H9B1 whole entry): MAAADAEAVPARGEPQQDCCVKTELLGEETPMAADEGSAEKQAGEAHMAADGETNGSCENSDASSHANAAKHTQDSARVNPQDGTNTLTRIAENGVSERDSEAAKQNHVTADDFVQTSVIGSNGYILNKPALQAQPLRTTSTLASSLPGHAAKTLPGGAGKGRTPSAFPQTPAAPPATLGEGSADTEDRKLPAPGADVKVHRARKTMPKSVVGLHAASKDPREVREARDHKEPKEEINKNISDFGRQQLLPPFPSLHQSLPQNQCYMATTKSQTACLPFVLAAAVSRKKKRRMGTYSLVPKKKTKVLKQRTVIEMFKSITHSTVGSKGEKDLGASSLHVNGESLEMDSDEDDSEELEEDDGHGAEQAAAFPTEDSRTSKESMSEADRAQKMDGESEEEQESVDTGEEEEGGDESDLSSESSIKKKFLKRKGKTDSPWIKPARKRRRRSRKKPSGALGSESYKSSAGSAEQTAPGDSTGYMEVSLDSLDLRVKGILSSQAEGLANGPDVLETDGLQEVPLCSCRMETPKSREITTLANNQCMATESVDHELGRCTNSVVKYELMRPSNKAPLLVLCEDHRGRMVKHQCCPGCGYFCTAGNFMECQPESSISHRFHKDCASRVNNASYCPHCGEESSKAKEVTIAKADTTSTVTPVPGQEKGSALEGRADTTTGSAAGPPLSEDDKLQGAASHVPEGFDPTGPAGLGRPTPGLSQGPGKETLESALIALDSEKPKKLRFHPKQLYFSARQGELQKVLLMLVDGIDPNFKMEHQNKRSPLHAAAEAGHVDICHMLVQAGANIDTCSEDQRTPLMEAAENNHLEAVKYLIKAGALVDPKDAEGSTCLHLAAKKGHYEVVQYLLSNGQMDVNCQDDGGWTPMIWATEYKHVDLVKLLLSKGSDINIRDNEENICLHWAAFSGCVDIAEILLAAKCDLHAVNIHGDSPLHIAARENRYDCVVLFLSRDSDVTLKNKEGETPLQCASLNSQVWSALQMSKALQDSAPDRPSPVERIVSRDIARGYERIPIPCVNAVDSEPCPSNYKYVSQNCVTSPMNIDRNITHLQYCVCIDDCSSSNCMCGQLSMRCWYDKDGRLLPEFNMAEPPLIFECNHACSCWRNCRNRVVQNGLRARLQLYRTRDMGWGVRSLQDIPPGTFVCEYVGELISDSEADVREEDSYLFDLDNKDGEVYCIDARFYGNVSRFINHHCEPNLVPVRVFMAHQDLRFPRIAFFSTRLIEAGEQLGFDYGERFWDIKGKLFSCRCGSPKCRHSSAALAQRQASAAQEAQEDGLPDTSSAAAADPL
Assay: EHMT1 PEP (EHMT1 peptide enzyme assay)
Assay type: biochemical
Conditions: peptide substrate enzyme assay

# count of solved cases: 5
compound: CNc1ccnc(Nc2ccc(OC)c(-n3cnc(CN(C)C)c3)c2)n1 [Compound 170]
attributeMeasured: IC50
valueMeasured: < 0.1 µM
//
compound: COc1cc(NC2CCNCC2)ccc1-c1cc2[nH]ccc2cn1 [Compound 231]
attributeMeasured: IC50
valueMeasured: 1 to 10 µM
//
compound: CNC(=O)N1CC(CNc2cc(C)nc(Nc3ccc(OC)c(-n4cc5c(n4)CCN(C)C5)c3)n2)C1 [Compound 88]
attributeMeasured: IC50
valueMeasured: 0.1 to 1 µM
//
compound: CNC1=Nc2cc(-n3cc(C4CCCN4)cn3)c(Cl)cc2C12CCC2 (centres unmarked) [Compound 326]
attributeMeasured: IC50
valueMeasured: < 0.1 µM
//
compound: CNCc1cn(-c2cc3nc(NC)cc(C)c3cc2OC)nn1 [Compound 122]
attributeMeasured: IC50
valueMeasured: 0.1 to 1 µM

Req: State its IC50 on EHMT1 (Homo sapiens, UniProt Q9H9B1): CNc1cc(C)nc(Nc2cnc(OC)c(-c3cc4ccncc4[nH]3)c2)n1 [Compound 204]
Resp: 1 to 10 µM

Req: State its IC50 on EHMT1 (Homo sapiens, UniProt Q9H9B1): CNc1cc(C)nc(Nc2ccc(OC)c(-n3cnc(CN(C)C)n3)c2)n1 [Compound 61]
Resp: 1 to 10 µM

Req: State its IC50 on EHMT1 (Homo sapiens, UniProt Q9H9B1): CNCc1cnn(-c2cc3nc(NC)cc(C4CCOCC4)c3cc2OC)c1 [Compound 184]
Resp: 0.1 to 1 µM
